# TARGET DESC: human TYK2 (Homo sapiens, UniProt P29597)
# Construct: catalytic domain (amino acids 871-1187; catalog number 08-147)
# Sequence (P29597 871-1187): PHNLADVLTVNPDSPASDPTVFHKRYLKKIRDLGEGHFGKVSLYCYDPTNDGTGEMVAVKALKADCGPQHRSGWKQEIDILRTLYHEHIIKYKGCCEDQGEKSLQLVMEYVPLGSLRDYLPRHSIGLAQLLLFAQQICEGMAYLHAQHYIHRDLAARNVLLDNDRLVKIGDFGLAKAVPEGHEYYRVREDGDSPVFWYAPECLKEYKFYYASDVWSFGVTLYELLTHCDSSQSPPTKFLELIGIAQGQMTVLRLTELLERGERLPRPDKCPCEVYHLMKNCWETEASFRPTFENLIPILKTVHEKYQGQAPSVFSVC
# METHOD: TYK2 inhibition assay
# CONDITIONS: recombinant human TYK2 catalytic domain, polyGT substrate
QUANTITY: IC50

Entry CCc1cc(C2=CCN(S(=O)(=O)C(C)C)CC2)ccc1N(C)c1cc2c(cn1)ncn2C [Compound 246] has what IC50?
0.01 to 100 nM

Entry CCc1cc(-c2cnn(CC(=O)N(C)C)c2)ccc1N(C)c1cc2c(cn1)ncn2C [Compound 220] : reported IC50 = ?
0.01 to 100 nM

Tell me the measured IC50 of CCc1cc(-c2ccc(Cl)s2)ncc1N(C)c1cc2c(cn1)ncn2C [Compound 304] , please.
0.01 to 100 nM

Entry CCc1cc(-c2cnc(N(C)C)nc2)ccc1N(C)c1cc2c(cn1)ncn2C [Compound 129] has what IC50?
101 to 500 nM

I am curious: what IC50 value has been reported for CCc1cc(C(=O)OC)ccc1N(C)c1cc2c(cn1)ncn2C [Compound 80] ?
101 to 500 nM

Would you kindly share the measured IC50 for CCc1cc(N2CCCC(C#N)C2)ncc1N(C)c1cc2c(cn1)ncn2C (centres unmarked) [Compound 416] ?
101 to 500 nM

Given the compound CN(c1cc2c(cn1)ncn2C)c1ccc(-c2cnn(C)c2)cc1OC(F)F [Compound 274] , what is its reported IC50?
0.01 to 100 nM

Please look up its IC50: CCc1cc(C(CC#N)NS(C)(=O)=O)ccc1N(C)c1cc2c(cn1)ncn2C (centres unmarked) [Compound 387]
101 to 500 nM

====

# TARGET DESC: human JAK3 (Homo sapiens)
# Construct: catalytic domain (amino acids 781-1124; catalog number PV3855)
# Sequence (P52333 781-1124): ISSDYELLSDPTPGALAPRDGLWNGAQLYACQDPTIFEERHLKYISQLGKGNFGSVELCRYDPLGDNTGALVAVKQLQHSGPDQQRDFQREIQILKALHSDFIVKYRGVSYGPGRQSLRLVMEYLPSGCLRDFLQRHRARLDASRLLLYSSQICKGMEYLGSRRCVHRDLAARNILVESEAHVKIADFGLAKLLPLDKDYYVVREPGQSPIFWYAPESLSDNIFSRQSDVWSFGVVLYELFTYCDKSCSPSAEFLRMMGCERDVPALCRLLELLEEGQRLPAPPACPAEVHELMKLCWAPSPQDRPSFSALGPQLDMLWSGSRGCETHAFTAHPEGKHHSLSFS
# METHOD: JAK3 inhibition assay
# CONDITIONS: recombinant human JAK3 catalytic domain; polyGT substrate
Please go through the items and note down their IC50.

Returns the measured IC50 for the input molecule. Input: CCc1cc(CNC2CCN(C(=O)OC(C)(C)C)C2)ccc1N(C)c1cc2c(cn1)ncn2C (stereo not drawn) [Compound 291]
> 1000 nM

Quick one: IC50 of CCc1cc(-c2cccs2)ncc1N(C)c1cc2c(cn1)ncn2C [Compound 289] ?
0.01 to 100 nM

Please look up its IC50: CCc1cc(N2CC(C(=O)NCC#N)C2)ncc1N(C)c1cc2c(cn1)ncn2C [Compound 401]
> 1000 nM

Can you look up the measured IC50 of CCc1cc(CN(C)S(C)(=O)=O)cc(F)c1N(C)c1cc2c(cn1)ncn2C [Compound 356] for me?
0.01 to 100 nM

State the recorded IC50 for this entry: CCc1ccc(F)cc1N(C)c1cc2c(cn1)ncn2C [Compound 84]
501 to 1000 nM

If you can, please state the reported IC50 value of CN(c1cc2c(cn1)ncn2C)c1ccc(C2CCN(S(C)(=O)=O)CC2)cc1OC(F)F [Compound 287] .
0.01 to 100 nM

Using the record for CN(c1cc2c(cn1)ncn2C)c1ccc(CN(C)S(C)(=O)=O)cc1F [Compound 358] , report its IC50.
101 to 500 nM

Given the molecule CCc1cc(C2CN(CC(F)(F)F)C2)ncc1N(C)c1cc2c(cn1)ncn2C [Compound 342] , what is its reported IC50?
> 1000 nM

Fill in the blank: the reported IC50 of CCc1cc(CN(C)S(C)(=O)=O)ccc1N(C)c1cc2c(cn1)ncn2C [Compound 261] is ____.
0.01 to 100 nM

// returns reported IC50 for input CCc1cc(-c2noc(CCC#N)n2)ccc1N(C)c1cc2c(cn1)ncn2C [Compound 156]
> 1000 nM

May I ask what IC50 has been recorded for COc1cc(C2CCN(C(=O)CC#N)CC2)ncc1N(C)c1cc2c(cn1)ncn2C [Compound 265] ?
> 1000 nM

Find the recorded IC50 belonging to Cc1ccc(OCc2cccnc2)cc1N(C)c1cc2c(cn1)ncn2C [Compound 61] and report it.
> 1000 nM

Quick one: IC50 for CCc1cc(-c2cnc(C(C)C)nc2)ccc1N(C)c1cc2c(cn1)ncn2C [Compound 140] ?
> 1000 nM

What value of measured IC50 is listed for Cc1cc(C#N)ccc1N(C)c1cc2c(cn1)ncn2C [Compound 31] ?
> 1000 nM

Tell me the measured IC50 of CCc1cc(CN2CCOCC2)ccc1N(C)c1cc2c(cn1)ncn2C [Compound 142] , please.
> 1000 nM

Quick one: IC50 of CCc1cc(CN(CC#N)S(C)(=O)=O)ncc1N(C)c1cc2c(cn1)ncn2C [Compound 344] ?
0.01 to 100 nM

Give its IC50 value. Item: CCc1cc(C(C#N)N2CC(C#N)C2)ccc1N(C)c1cc2c(cn1)ncn2C (stereo not drawn) [Compound 391]
101 to 500 nM

Report IC50 for CCc1cc(C2=CCN(C(=O)N(C)CC#N)CC2)ccc1N(C)c1cc2c(cn1)ncn2C [Compound 207] please.
101 to 500 nM
